# System: adenosine aminohydrolase (adenosine deaminase)
# method.notes: Kinetic Constant (Km) against Adenosine Aminohydrolase was determined from calf intestinal mucosa
# Type: ADME, Bos taurus
# details: cattle
Please provide measured Km for the entries that follow.
Give the value, in units of µM, as a plain number.

Request: Name the reported Km value associated with the molecule CC(O)[C@@H](C=O)O[C@@H](C=O)n1cnc2c(N)ncnc21 (some centres not stated)
Result: 350

Request: Check CC(O)[C@H](C=O)O[C@@H](C=O)n1cnc2c(N)ncnc21 (some centres not stated) too.
Result: 140

* * *

Target protein (sequence): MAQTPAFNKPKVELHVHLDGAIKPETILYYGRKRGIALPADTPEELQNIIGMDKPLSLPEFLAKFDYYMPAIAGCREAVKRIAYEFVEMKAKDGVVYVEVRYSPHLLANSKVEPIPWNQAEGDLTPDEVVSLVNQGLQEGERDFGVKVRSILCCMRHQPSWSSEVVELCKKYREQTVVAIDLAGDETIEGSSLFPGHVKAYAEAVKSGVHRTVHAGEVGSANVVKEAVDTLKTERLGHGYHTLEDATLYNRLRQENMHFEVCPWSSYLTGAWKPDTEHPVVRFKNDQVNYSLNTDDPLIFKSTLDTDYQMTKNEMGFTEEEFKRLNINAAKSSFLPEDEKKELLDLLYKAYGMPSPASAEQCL
measured.metric: pKi
In simple prose, pKi is minus the logarithm base ten of a concentration in moles per litre.

Request: Look up pKi: CC(O)[C@@H](C=O)O[C@@H](C=O)n1cnc2c(N)ncnc21 (stereo partly specified)
Result: 3.37
